Measured hERG current change (%, negative = inhibition) at 10uM, listed per entry for reference.
studyTarget: human ether-à-go-go-related gene (hERG) potassium channel (human);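 note: peak tail current of the secondary pulse compared with the same well before compound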
Sequence (Q12809 whole entry, looked up): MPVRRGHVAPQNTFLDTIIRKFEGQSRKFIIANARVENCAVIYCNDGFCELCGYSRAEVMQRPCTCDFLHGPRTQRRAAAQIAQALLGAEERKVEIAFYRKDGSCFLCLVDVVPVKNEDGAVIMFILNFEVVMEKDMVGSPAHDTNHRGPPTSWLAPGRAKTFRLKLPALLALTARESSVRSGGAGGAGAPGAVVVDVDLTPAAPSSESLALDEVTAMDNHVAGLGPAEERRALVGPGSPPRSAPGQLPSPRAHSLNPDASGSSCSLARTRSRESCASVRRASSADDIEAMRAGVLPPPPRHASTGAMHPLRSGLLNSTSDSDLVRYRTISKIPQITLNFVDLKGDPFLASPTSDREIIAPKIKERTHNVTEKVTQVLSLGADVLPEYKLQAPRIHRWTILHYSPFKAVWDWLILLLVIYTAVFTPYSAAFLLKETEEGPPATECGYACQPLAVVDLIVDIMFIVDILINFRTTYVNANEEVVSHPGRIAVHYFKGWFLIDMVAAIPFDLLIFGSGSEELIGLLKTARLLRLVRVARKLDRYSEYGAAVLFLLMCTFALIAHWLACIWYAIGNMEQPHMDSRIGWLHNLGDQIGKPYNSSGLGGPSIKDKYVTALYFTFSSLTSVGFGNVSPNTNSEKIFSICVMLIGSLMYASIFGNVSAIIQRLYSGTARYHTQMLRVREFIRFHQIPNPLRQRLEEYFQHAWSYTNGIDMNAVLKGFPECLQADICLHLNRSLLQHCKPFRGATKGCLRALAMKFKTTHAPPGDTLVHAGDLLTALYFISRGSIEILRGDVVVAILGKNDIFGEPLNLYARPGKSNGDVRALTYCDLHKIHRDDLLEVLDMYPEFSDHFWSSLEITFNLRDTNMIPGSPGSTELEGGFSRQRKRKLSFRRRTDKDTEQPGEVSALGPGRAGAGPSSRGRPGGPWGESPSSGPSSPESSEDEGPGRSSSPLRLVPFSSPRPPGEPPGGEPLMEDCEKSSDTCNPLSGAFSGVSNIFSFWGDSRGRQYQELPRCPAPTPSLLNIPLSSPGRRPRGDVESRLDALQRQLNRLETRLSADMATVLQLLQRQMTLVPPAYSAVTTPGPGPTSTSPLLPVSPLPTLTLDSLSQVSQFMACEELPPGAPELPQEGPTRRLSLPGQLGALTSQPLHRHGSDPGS
methodNotes: primary screen, population patch clamp on CHO cells stably expressing hERG; higher = less effect of the substance
Among all 310,000 compounds or so, about 14,000 (4.5%) showed an effect of 50% or more. Effects have a minus sign here. The sample holds strong results, similar compounds and a random draw of the others, so the mix is not that of the screen.
attributeMeasured: hERG current change (%, negative = inhibition) at 10uM (%)

COc1ccccc1N1CCN(C2CC(=O)N(c3ccccc3)C2=O)CC1 (centres unmarked)
24.1
O=C(C[n+]1ccccc1)N/N=C/c1ccc(Cl)cc1.[Cl-]
-5.76
COC(=O)c1c(C)[nH]c(C(=O)COc2ccc3ccc(=O)oc3c2)c1C
11.5
O=C(O)c1c(-n2cccc2)sc2c1CCCC2
24.4
O=C1CC(N2CCN(c3ccccc3)CC2)C(=O)N1c1cccc(Br)c1 (centres unmarked)
-1.92
COc1cccc(N2CCN(C3CC(=O)N(c4cccc(Cl)c4)C3=O)CC2)c1 (centres unmarked)
-14.4
O=C(OCC(=O)N1CCc2ccccc21)C1CCCN1S(=O)(=O)c1ccc(Cl)cc1 (centres unmarked)
-17.8
Cc1cc(C)cc(CC2CC(=O)N(c3ccc([N+](=O)[O-])cc3)C2=O)c1 (centres unmarked)
9.78
COc1cc(C(=S)N2CCCC2)ccc1O
18.6
COc1ccc(/C=C/c2nc3sc4c(c3c(=O)o2)CCC4)cc1
4.28
Cc1nn2c(N3CCCC3)cc(C(C)C)nc2c1-c1ccccc1
3.92
CC(=O)c1cccc(NC(=O)N2CCCC2C(=O)NCc2ccccc2)c1 (centres unmarked)
15
C=CCOC(=O)C1=C[C@@H](c2csc3ccccc23)[C@H](CCCO)[C@@H](OCC)O1
-27.7
COc1ccc(CCCc2nnc(SCC(=O)Nc3ccc(OC)cc3)o2)cc1
17.7
COc1ccc(NS(=O)(=O)c2cccc(C(=O)NNC(=O)c3ccc(O)c(Cl)c3)c2)cc1
-0.207
Cc1ccc(CNC(=O)CN2C(=O)NC3(CC(C)CC(C)(C)C3)C2=O)cc1 (centres unmarked)
-3.14
COC(=O)C1=C(C)N(Cc2ccccc2)C(=NCc2cc(OC)c(OC)c(OC)c2)N[C@H]1c1cccc(F)c1
-23
Cc1cccc(CC2CC(=O)N(c3ccc([N+](=O)[O-])cc3)C2=O)c1 (centres unmarked)
-53.3
COc1ccccc1N1CCN(C2CC(=O)N(c3cccc(Br)c3)C2=O)CC1 (centres unmarked)
-53.7
CCc1noc(C)c1C(=O)NC1CC(C)(C)Cc2c1cnn2-c1ccccc1 (centres unmarked)
5.9

====

studyTarget: human ether-à-go-go-related gene (hERG) potassium channel (human);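 note: peak tail current of the secondary pulse compared with the same well before compound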
methodNotes: primary screen, population patch clamp on CHO cells stably expressing hERG; higher = less effect of the substance
Screen size: about 310,000 compounds; about 14,000 (4.5%) showed an effect of 50% or more. The effect is printed as a negative number. This is one part of a sample in which strong results are shown more often than they occur.
Measured hERG current change (%, negative = inhibition) at 10uM, listed per entry for reference.
attributeMeasured: hERG current change (%, negative = inhibition) at 10uM (%)

O=C(NNC(=O)c1cnccn1)c1ccc(Cl)cc1
10.1
CC(=O)Nc1cc(NC(=O)C2C3C=CC(C3)C2C(=O)O)ccc1Cl (stereo not drawn)
14.5
CCC(C(=O)NC1CCCCC1)n1c2ccccc2c2nc(=O)cc(C)n21 (stereo not drawn)
10.4
CCN1CCN(Cc2cc(OC)c3c(c2)OCO3)CC1
9.99
COc1ccc(CNC(=S)Nc2ccccc2)cc1
7.34
Cc1cc(N2CCN(c3ccccc3)CC2)n2nnnc2n1
-3.56
